target: Non-receptor tyrosine-protein kinase TYK2 (Homo sapiens, UniProt P29597); assay: Inhibition of TYK2 JH1 (unknown origin)
Sequence (P29597 whole entry): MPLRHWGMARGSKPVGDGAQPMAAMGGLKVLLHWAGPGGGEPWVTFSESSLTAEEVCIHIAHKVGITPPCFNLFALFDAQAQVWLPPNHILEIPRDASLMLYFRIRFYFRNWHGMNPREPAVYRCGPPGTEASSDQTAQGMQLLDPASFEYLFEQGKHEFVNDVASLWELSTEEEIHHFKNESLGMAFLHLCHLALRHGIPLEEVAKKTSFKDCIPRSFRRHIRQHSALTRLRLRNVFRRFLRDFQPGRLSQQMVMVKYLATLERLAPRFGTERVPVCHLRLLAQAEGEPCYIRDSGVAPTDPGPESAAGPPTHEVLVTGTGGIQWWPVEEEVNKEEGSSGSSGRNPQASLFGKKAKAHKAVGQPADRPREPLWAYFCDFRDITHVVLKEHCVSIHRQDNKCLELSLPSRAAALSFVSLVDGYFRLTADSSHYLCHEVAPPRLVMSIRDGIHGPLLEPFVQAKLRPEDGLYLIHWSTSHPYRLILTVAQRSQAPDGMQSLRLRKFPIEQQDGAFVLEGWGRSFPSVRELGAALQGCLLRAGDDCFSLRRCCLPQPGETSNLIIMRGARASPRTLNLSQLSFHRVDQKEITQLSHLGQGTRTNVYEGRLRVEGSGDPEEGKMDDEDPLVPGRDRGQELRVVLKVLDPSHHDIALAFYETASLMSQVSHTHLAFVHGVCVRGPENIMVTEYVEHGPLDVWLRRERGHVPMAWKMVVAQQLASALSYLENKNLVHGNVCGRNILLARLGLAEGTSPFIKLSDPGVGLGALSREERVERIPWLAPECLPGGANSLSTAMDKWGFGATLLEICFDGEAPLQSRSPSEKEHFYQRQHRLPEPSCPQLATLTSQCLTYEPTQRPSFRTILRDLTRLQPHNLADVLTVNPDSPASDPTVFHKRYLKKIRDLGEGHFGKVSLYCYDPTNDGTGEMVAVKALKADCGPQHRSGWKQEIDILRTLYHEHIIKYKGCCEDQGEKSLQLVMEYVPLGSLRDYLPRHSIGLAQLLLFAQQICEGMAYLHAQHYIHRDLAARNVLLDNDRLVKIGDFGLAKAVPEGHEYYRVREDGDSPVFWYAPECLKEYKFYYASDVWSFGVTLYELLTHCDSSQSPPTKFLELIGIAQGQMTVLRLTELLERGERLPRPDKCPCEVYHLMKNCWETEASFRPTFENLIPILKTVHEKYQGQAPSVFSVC
pIC50: −log10 of the molar value.
metric_name: pIC50

input_smiles | pIC50
CO[C@@]1(c2cc(C)cc(-n3cc(C4CC4)c4cnc(NC(C)=O)cc43)n2)CCOC1 | < 5.00
[2H]C([2H])([2H])NC(=O)c1nnc2cc1Nc1cc(cc(-c3ccn(C)n3)c1OC)CCOCc1cccc(n1)N2 | < 5.00
CO[C@@]1(c2cc(C)cc(-n3cc(C4CCN(C)CC4)c4cnc(NC(N)=O)cc43)n2)CCOC1 | < 5.00

Switching to the query record.
pIC50 recorded for this compound, CNC(=O)c1cnc2cc1Nc1cc(cc(-c3ccn(C)n3)c1OC)CCOCc1nc(ccc1C)N2 , is < 5.00
